# Test system: Acinetobacter baumannii NT5-1 – tet(X5)
# assay_details: microbe, parasite or virus in culture
# Format: cell-based
# condition: inhibitor in combination with tigecycline, lowest FICI
result_type: Combination (Antibiotic/Inhibitor) MICs: inhibitor (µg/mL)

molecule	assay_value
O=C(c1ccc(OCCN2CCCCC2)cc1)c1c(-c2ccc(O)cc2)sc2cc(O)ccc12 [Raloxifene]	128
CN1CCN(CCCN2c3ccccc3Sc3ccc(Cl)cc32)CC1 [Prochlorperazine]	64
Cc1c2c(c(O)c3c(O)cccc13)C(=O)[C@]1(O)C(=O)C(C(N)=O)=C(O)[C@@H](N(C)C)[C@@H]1C2 [Anhydrotetracycline]	4
CN1CCN(CCCN2c3ccccc3Sc3ccc(C(F)(F)F)cc32)CC1 [Trifluoperazine]	64
[H]/N=C(/NCCCCC)N/N=C/c1c[nH]c2ccc(OC)cc12 [Tegaserod]	16
C[C@]12CCC(=O)C=C1[C@@H]1C[C@@H]1[C@H]1[C@@H]3[C@@H]4C[C@@H]4[C@@]4(CCC(=O)O4)[C@@]3(C)CC[C@@H]12 [Drosperinone]	128
